Experiment: Selectivity index, ratio of IC50 for human HCT116 cells to IC50 for chloroquine-sensitive Plasmodium falciparum FCA 20/ Ghana
Format: toxicity, cell-based, HCT-116
Conditions: HCT116 cells versus Plasmodium falciparum FCA 20/Ghana, read-out: Ratio IC50
result-type: selectivity ratio

[
  {
    "molecule": "C/C=C1/CN2CC[C@]34c5ccccc5N5C(=O)C([C@H]6C[C@]78c9ccccc9N9C(=O)C=C[C@@H]([C@H]97)[C@H]7C[C@@H]8N6C/C7=C/C)=C[C@H]([C@H]53)[C@H]1C[C@H]24 [SUNGUCINE]",
    "value": 0.79
  },
  {
    "molecule": "C/C=C1/CN2[C@@H](C3=C[C@@H]4[C@@H]5N(C3=O)c3ccccc3[C@@]53CCN5C/C(=C/CO)[C@@H]4C[C@H]53)C[C@@]34c5ccccc5N5C(=O)CC=C([C@H]1C[C@H]23)[C@H]54",
    "value": 19.1
  },
  {
    "molecule": "O=C1C[C@@H]2OCC=C3CN4[C@@H](C5=C[C@@H]6[C@@H]7N(C5=O)c5ccccc5[C@@]75CCN7C/C(=C/CO)[C@@H]6C[C@H]75)C[C@]56c7ccccc7N1[C@H]5[C@@H]2[C@H]3C[C@H]46 [STRYCHNOGUCINE B]",
    "value": 24.3
  },
  {
    "molecule": "CC[C@H]1CN2CCC3c4ccccc4NC3[C@H]2C[C@@H]1C[C@@H]1NCCc2c1[nH]c1ccccc21 (stereo not given in full) [OCHROLIFUANINE E]",
    "value": 20.7
  },
  {
    "molecule": "C/C=C1\\CN2CCC3c4ccccc4NC3[C@@H]2C[C@@H]1CC1=NCCc2c1[nH]c1ccccc21 (stereo not given in full) [DIHYDROUSAMBARENSINE]",
    "value": 14
  }
]

Values were extracted from ChEMBL document CHEMBL1150125.
